These data points were gathered from patent US20230348603A1.

Property: normalized maximum binding nm shift; scope: individual binders
experimentalTarget: T1, Human VSIG4-L-Fc (human)
T1 construct: also called hVSIG4-L-Fc; hVSIG4-L
T1 sequence (chain, as listed by the source limits assumed): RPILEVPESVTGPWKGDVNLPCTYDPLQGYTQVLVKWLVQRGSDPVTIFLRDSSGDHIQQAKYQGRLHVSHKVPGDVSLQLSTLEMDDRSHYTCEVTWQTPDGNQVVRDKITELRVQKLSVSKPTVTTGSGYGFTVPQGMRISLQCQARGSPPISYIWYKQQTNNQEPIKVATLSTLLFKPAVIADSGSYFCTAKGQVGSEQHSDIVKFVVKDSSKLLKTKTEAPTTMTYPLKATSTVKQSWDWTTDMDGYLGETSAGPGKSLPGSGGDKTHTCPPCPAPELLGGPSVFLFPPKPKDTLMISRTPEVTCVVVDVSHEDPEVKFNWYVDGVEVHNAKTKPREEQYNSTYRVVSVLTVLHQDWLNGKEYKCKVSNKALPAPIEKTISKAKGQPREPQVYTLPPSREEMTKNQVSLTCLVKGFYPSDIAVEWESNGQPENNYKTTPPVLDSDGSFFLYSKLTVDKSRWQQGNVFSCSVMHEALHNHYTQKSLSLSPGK
assayComment: BLI binning on hVSIG4-L-Fc, competitor 15C04 first;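 further: normalized to binding of second antibody without first competitor antibody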
Express the reported value numerically, then name its unit.

Below, each entry is followed by its recorded normalized maximum binding nm shift result.
| binder | propertyMeasured | assayValue |
| --- | --- | --- |
| 15A06 mouse/human chimeric IgG4 (S228P) kappa (antibody, V domains shown) VH: QVQMKQSGPSLVRPSQTLSLTCSVTGDSITSGYWNWIRKFPGDKFEYLGYISYSGFTYYNPSLKSRVSITRDTSKNQYYLQLHSVTTEDTATYYCASSKYGSSLGFPYWGQGTLVTVSA VL: DVVMTQTPLSLPVSLGDQASISCRSSQSLVHSNGNTYLHWYLQKPGQSPKLLIYKVSNRFSGVPDRFSGSGSGTDFTLKISRVEAEDLGVYFCSQSTHVPFTFGSGTKLEIKR | normalized maximum binding nm shift | 0.15 normalized |
| 14C05 mouse/human chimeric IgG4 (S228P) kappa (antibody, V domains shown) VH: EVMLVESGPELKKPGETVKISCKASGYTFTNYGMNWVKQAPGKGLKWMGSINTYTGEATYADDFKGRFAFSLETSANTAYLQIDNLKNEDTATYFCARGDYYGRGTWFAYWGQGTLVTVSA VL: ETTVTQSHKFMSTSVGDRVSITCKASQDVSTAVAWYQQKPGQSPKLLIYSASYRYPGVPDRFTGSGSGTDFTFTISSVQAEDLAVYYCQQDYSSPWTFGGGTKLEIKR | normalized maximum binding nm shift | 0.76 normalized |

Next up:
Need normalized maximum binding nm shift of 15C04 mouse/human chimeric IgG4 (S228P) kappa (antibody, V domains shown) VH: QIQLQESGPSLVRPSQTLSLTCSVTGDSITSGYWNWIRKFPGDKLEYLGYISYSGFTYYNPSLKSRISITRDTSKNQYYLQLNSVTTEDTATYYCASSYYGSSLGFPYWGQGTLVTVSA VL: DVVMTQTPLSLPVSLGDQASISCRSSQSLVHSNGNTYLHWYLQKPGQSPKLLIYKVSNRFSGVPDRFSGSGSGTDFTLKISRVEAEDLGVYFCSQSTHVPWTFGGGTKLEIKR , thanks. 0.16 normalized
